Origin of the recorded values: patent US9290451B2

tested on: human CB2 receptors (Homo sapiens (Human), UniProt P34972)
Sequence (P34972 whole entry): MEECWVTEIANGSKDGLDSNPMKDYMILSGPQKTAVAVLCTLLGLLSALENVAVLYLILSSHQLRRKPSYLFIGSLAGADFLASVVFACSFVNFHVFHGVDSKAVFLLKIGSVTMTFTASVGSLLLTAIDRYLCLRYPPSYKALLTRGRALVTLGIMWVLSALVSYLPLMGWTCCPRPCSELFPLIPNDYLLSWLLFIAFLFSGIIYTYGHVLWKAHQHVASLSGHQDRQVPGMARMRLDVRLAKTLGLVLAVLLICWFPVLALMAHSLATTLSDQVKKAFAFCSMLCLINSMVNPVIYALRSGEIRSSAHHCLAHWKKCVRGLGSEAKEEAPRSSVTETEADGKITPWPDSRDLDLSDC
protocol: cAMP assay, CHO cells expressing human CB2 receptors
Type: cell-based
condition notes: CHO cells expressing human CB2, cAMP; read-out: human CB2 EC50
The reader will find reported EC50 values listed item by item below.
Numbers only; they are read as nM.

compound	EC50 (nM)
NC(=O)[C@H](NC(=O)c1ccc(C2CC2)c(OCC2CC2)n1)c1ccccc1	23.1
CN1CC(NC(=O)c2ccc(N3CC(F)(F)C3)c(OCC3CC3)n2)CC1=O (stereo not shown)	846
CCC(CC)(NC(=O)c1ccc(C2CC2)c(O[C@@H](CCO)C(F)(F)F)n1)C(=O)NC	344
Cc1nc(C(C)(C)NC(=O)c2ccc3c(n2)CC(C)(C)CC3)no1	22.8
COC(=O)C(C)(C)NC(=O)c1cccc(C2CCCCC2)n1	32.1

Enquiry: Requested read-out: EC50. Entry: "Cc1nc(C(C)(C)NC(=O)c2ccc(C3CCOCC3)c(OCC3CC3)n2)no1"
Return: 88.3

Enquiry: Proceed to "CCOC(=O)C(CC)(CC)NC(=O)c1ccc(C(F)(F)F)c(OCC2CC2)n1"
Return: 2.4

Enquiry: Proceed to "CNC(=O)[C@@H](NC(=O)c1cccc(-c2cccc(Cl)c2)n1)C(C)(C)C"
Return: 64.2

Enquiry: Proceed to "Cc1nc(C(C)(C)NC(=O)c2cccc(-c3cccc(Cl)c3)n2)no1"
Return: 99.9

Enquiry: Proceed to "CC(C)C[C@H](NC(=O)c1ccc(C2CC2)c(Cc2ccc(F)cc2)n1)C(=O)O"
Return: 239

Enquiry: Proceed to "CC(C)(NC(=O)c1ccc(C2CC2)c(-c2cccc(Cl)c2)n1)c1ncco1"
Return: 83.9
